Provide the recorded pIC50 for the entries that follow.
Target: mTOR (human recombinant aa mTOR 1360-2549) (Homo sapiens (Human), UniProt P42345)
Sequence (P42345 1360-2549): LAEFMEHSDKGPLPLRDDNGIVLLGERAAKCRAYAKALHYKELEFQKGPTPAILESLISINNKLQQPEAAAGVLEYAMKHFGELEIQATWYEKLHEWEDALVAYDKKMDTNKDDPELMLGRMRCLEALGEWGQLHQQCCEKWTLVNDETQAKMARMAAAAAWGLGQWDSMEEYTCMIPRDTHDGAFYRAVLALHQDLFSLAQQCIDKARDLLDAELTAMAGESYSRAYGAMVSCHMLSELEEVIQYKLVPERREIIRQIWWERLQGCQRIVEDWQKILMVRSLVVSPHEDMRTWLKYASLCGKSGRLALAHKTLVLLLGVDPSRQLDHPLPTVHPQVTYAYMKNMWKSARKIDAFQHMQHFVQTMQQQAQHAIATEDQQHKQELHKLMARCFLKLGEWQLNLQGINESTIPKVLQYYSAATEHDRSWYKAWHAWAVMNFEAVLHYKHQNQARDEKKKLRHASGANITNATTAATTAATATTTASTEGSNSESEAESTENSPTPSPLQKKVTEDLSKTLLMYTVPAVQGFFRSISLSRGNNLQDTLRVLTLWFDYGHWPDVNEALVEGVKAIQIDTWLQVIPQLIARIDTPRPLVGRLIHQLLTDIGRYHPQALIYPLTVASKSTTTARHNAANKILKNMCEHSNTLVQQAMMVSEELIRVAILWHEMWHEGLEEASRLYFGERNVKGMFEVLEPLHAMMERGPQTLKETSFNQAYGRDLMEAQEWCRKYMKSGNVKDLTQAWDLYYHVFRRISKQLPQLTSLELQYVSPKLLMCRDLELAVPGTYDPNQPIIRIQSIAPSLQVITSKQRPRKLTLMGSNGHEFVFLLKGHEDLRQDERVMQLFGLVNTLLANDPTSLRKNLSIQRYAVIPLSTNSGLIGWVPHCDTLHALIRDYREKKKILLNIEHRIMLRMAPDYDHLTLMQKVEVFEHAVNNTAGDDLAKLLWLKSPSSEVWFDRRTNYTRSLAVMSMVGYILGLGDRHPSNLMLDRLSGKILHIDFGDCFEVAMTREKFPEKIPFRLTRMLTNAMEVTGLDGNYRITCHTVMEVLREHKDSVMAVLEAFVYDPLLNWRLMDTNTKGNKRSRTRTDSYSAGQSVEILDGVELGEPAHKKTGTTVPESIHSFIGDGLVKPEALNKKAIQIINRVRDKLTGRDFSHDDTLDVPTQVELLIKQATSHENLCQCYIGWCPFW
Assay: mTOR enzymatic test by TR-FRET (phosphorylation of GFP-4EBP1)
Description: Model 1: mTOR Enzymatic Test by TR-FRET (Time-resolved Fluorescence Resonance Energy Transfer). The test detects the phosphorylation of the substrate GFP-4EBP1 using a terbium-labelled antibody that is specific for the phospho-Thr46 epitope. Binding of the Tb-antibody to the phosphorylated GFP peptide allows the transfer of energy from Tb, excited at 340 nm, to GFP with an increase in the fluorescence emission of the GFP at 520 nm. […] The mixture is incubated for 30 minutes at room temperature. […]
One number for each entry, as −log10 of the molar value.

# return pIC50 for each item in the list
1. CCN1CC(C)(C)Oc2nc(N3CC4CCC(C3)O4)nc(-c3ccc(NC(=O)Nc4ccc(OC)cn4)cc3)c2C1=O [Example 44]
2. CNC(=O)Nc1ccc(-c2nc(N3CC4CCC(C3)O4)nc3c2C(=O)N(C)CC(C)(C)O3)cc1 [Example 38]
3. Cc1ccc(NC(=O)Nc2ccc(-c3nc(N4C5CCC4COC5)nc4c3C(=O)N(C)CC(C)(C)O4)cc2F)cn1 [Example 67]
4. CCN1CC(C)(C)Oc2nc(N3CCOC[C@@H]3C)nc(-c3ccc(NC(=O)Nc4ccc(OC)cn4)cc3)c2C1=O [Example 173]
5. CNC(=O)Nc1ccc(-c2nc(N3C4CCC3COC4)nc3c2C(=O)N(C)CC(C)(C)O3)cc1F [Example 46]
6. CCNC(=O)Nc1ccc(-c2nc(N3C4CCC3COC4)nc3c2C(=O)N(CC)CC(C)(C)O3)cc1F [Example 255]
7. CCN1CC(C)(C)Oc2nc(N3CCOC[C@@H]3C)nc(-c3ccc(NC(=O)Nc4cc(OC)ccc4F)cc3)c2C1=O [Example 213]

Ans.
7.47
7.66
7.82
7.92
7.59
7.14
7.32

----------
target: PI3Kα (p110α/p85α) (Homo sapiens (Human), UniProt P42336); test: PI3Kα enzymatic test by measuring the consumption of ATP; format: biochemical
Sequence (P42336 whole entry): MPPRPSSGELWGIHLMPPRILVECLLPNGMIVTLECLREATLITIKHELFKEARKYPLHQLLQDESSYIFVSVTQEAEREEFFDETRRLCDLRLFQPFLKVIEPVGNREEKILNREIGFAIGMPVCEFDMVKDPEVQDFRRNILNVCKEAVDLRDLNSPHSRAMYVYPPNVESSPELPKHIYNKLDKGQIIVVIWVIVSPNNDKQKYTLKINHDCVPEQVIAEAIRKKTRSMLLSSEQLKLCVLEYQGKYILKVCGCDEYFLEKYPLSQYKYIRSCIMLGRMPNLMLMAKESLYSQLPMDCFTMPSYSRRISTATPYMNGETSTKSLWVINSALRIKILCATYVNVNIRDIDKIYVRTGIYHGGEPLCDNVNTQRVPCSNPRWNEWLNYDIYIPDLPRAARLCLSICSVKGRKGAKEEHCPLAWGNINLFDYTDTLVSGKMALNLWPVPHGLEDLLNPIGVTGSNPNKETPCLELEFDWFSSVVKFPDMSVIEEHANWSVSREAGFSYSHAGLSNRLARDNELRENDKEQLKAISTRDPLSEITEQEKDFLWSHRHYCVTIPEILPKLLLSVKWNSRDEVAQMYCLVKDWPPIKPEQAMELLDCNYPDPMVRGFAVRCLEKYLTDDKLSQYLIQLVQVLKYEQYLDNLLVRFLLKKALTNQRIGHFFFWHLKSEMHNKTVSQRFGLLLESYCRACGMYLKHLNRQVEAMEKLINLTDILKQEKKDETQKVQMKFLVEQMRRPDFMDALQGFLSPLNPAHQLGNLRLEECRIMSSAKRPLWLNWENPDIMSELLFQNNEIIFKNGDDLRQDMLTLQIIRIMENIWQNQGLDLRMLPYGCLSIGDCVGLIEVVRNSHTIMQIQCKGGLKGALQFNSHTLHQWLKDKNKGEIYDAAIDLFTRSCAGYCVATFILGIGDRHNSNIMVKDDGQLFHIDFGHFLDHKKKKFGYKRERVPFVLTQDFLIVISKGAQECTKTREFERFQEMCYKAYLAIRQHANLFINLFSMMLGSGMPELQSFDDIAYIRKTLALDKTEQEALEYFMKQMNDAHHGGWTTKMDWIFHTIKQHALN
Sequence (P27986 whole entry partner): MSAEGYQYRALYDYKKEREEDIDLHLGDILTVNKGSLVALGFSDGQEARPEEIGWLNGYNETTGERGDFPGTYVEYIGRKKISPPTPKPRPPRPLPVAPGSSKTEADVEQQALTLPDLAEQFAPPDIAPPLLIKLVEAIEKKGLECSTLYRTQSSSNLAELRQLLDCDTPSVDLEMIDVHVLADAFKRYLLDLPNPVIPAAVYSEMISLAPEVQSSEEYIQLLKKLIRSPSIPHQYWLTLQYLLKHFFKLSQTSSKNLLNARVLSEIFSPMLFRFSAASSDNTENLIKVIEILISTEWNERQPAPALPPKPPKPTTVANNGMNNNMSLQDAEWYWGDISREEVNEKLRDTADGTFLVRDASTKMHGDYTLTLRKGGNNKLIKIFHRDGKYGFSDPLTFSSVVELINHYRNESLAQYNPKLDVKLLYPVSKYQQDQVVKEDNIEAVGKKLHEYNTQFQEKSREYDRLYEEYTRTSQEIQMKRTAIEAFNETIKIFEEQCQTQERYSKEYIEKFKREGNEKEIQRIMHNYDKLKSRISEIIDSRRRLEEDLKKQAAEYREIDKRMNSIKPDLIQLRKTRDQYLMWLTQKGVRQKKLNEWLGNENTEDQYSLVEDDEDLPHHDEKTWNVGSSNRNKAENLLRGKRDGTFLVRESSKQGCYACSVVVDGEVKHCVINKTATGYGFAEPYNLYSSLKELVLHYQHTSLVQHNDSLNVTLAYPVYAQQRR
Think of 4 µM as a floor: if PI3Ka IC50 stands on it or above, it is condition met; beneath it, condition not met.

Qu. Kindly determine if PI3Ka IC50 recorded for CC[C@H]1COCCN1c1nc2c(c(-c3ccc(NC(=O)Nc4ccc(C)nc4)c(F)c3)n1)C(=O)N(CC)CC(C)(C)O2 [Example 37] is above or exactly 4 µM.
Ans. condition met

Qu. Kindly determine if PI3Ka IC50 recorded for CCN1CC(C)(C)Oc2nc(N3CCOC[C@@H]3C)nc(-c3ccc(NC(=O)Oc4cccc(OC)c4)cc3)c2C1=O [Example 193] is above or exactly 4 µM.
Ans. condition met

----------
system: U87MG tumour cells; experiment: Test of in vitro proliferation of U87MG tumour cells; format: cell-based; settings: Homo sapiens, U-87 MG, 72 h, U87MG cells, 72 hours; read-out: U87 Cell Proliferation IC50
Provide the recorded pIC50 for the entries that follow.
Answers are plain numbers, as −log10 of the molar value.

# querySmiles, reportedMeasurement
rows = [
    ("COCCN1CC(C)(C)Oc2nc(N3CCOC[C@@H]3C)nc(-c3ccc(NC(=O)Nc4ccc(F)cc4F)cc3)c2C1=O", 6.30),
    ("CCNC(=O)Nc1ccc(-c2nc(N3CC4CCC(C3)O4)nc3c2C(=O)N(CCOC)CC(C)(C)O3)cc1F", 6.05),
    ("CCN1CC(C)(C)Oc2nc(N3CC4CCC(C3)O4)nc(-c3ccc(NC(=O)NC4CC4)c(F)c3)c2C1=O", 6.66),
    ("CCN1CC(C)(C)Oc2nc(N3CC4CCC(C3)O4)nc(-c3ccc(NC(=O)NCCOC)c(F)c3)c2C1=O", 5.23),
    ("CNC(=O)Nc1ccc(-c2nc(N3C4CCC3COC4)nc3c2C(=O)N(C)CC(C)(C)O3)cc1F", 7.05),
    ("CCNC(=O)Nc1ccc(-c2nc(N3CC4CCC(C3)O4)nc3c2C(=O)N(C2CCOCC2)CC(C)(C)O3)cc1", 5.85),
]

# return pIC50 for each item in the list
1. CCN1CC(C)(C)Oc2nc(N3CC4CCC(C3)O4)nc(-c3ccc(NC(=O)Nc4cccc(C(F)(F)F)c4)cc3)c2C1=O
2. CCN1CC(C)(C)Oc2nc(N3C4CCC3COC4)nc(-c3ccc(NC(=O)NC)c(F)c3)c2C1=O
3. CCN1CC(C)(C)Oc2nc(N3CCOC[C@@H]3C)nc(-c3ccc(NC(=O)Nc4ccc(N5CCN(C)CC5)nc4)c(F)c3)c2C1=O
4. CCN1CC(C)(C)Oc2nc(N3C4CCC3COC4)nc(-c3ccc(NC(=O)Nc4ccccn4)cc3)c2C1=O
5. COCCN1CC(C)(C)Oc2nc(N3CCOC[C@@H]3C)nc(-c3ccc(NC(=O)Nc4cnn(C)c4)cc3)c2C1=O

Ans.
6.53
7.13
7.04
6.72
6.05

----------
molecular target: mTOR (human recombinant aa mTOR 1360-2549) (Homo sapiens (Human), UniProt P42345); experiment: mTOR enzymatic test by TR-FRET (phosphorylation of GFP-4EBP1)
Provide the recorded IC50 for the entries that follow.
One number for each entry, in nM.

// known answers, use as guide
# querySmiles, IC50 (nM)
data = [
    ("CCOC(=O)Nc1ccc(-c2nc(N3CC4CCC(C3)O4)nc3c2C(=O)N(CC)CC(C)(C)O3)cc1", 442),
    ("CCN1CC(C)(C)Oc2nc(N3CC4CCC(C3)O4)nc(-c3ccc(NC(=O)Nc4ccc(N5CCN(C)CC5)cc4)c(F)c3)c2C1=O", 132),
    ("CCN1CC(C)(C)Oc2nc(N3C4CCC3COC4)nc(-c3ccc(NC(=O)Nc4ccncn4)cc3)c2C1=O", 40),
    ("CCN1CC(C)(C)Oc2nc(N3CCOC[C@@H]3C)nc(-c3ccc(NC(=O)Nc4cc(OC)c(F)cc4F)cc3)c2C1=O", 81),
    ("CCNC(=O)Nc1ccc(-c2nc(N3CC4CCC(C3)O4)nc3c2C(=O)N(CCCO)CC(C)(C)O3)cc1", 65),
    ("CCN1CC(C)(C)Oc2nc(N3CCOC[C@@H]3C)nc(-c3ccc(NC(=O)Nc4ccc(N5CCOCC5)nc4)c(F)c3)c2C1=O", 37),
]

# return IC50 for each item in the list
1. CCN1CC(C)(C)Oc2nc(N3CC4CCC(C3)O4)nc(-c3ccc(NC(=O)NC(C)(C)CO)c(F)c3)c2C1=O
2. CCN1CC(C)(C)Oc2nc(N3CCOC[C@@H]3C)nc(-c3ccc(NC(=O)Nc4ccc(F)cc4F)cc3)c2C1=O
3. CNC(=O)Nc1ccc(-c2nc(N3C4CCC3COC4)nc3c2C(=O)N(C)CC(C)(C)O3)cc1
4. CCN1CC(C)(C)Oc2nc(N3CCOC[C@@H]3C)nc(-c3ccc(NC(=O)NC)c(F)c3)c2C1=O
5. COCCN1CC(C)(C)Oc2nc(N3CCOC[C@@H]3C)nc(-c3ccc(NC(=O)Nc4ccc(F)cc4F)cc3)c2C1=O

Ans.
1. 1120
2. 24
3. 27
4. 22
5. 63

----------
biological target: PI3Kα (p110α/p85α) (Homo sapiens (Human)); assay: PI3Kα enzymatic test by measuring the consumption of ATP; type: biochemical
Provide the recorded PI3Ka IC50 for the entries that follow.
Give bare numbers, in µM.

# return PI3Ka IC50 for each item in the list
1. CCN1CC(C)(C)Oc2nc(N3CCOC[C@@H]3C)nc(-c3ccc(NC(=O)Nc4ccncc4)c(F)c3)c2C1=O [Example 231]
2. CCN1CC(C)(C)Oc2nc(N3CC4CCC(C3)O4)nc(-c3ccc(NC(=O)Nc4ccncc4)c(F)c3)c2C1=O [Example 52]

Ans.
[0.103, 1.71]

----------
Target: mTOR (human recombinant aa mTOR 1360-2549) (Homo sapiens (Human), UniProt P42345)
Assay: mTOR enzymatic test by TR-FRET (phosphorylation of GFP-4EBP1)
Experimental: Model 1: mTOR Enzymatic Test by TR-FRET (Time-resolved Fluorescence Resonance Energy Transfer). The test detects the phosphorylation of the substrate GFP-4EBP1 using a terbium-labelled antibody that is specific for the phospho-Thr46 epitope. Binding of the Tb-antibody to the phosphorylated GFP peptide allows the transfer of energy from Tb, excited at 340 nm, to GFP with an increase in the fluorescence emission of the GFP at 520 nm. […] The mixture is incubated for 30 minutes at room temperature. […]
Response field label: string, one of True (IC50 strictly below 100 nM) or False.

Solved entries:
# querySmiles, class
records = [
    ("CCN1CC(C)(C)Oc2nc(N3CC4CCC(C3)O4)nc(-c3ccc(NC(=O)Nc4ccon4)c(C)c3)c2C1=O", "False"),
    ("CN1CC(C)(C)Oc2nc(N3CC4CCC(C3)O4)nc(-c3ccc(NC(=O)Nc4ccncc4)c(F)c3)c2C1=O", "True"),
    ("COCCN1CC(C)(C)Oc2nc(N3CCOC[C@@H]3C)nc(-c3ccc(NC(=O)Nc4cccc(OC(F)F)c4)cc3)c2C1=O", "False"),
    ("CCN1CC(C)(C)Oc2nc(N3CCOC[C@@H]3C)nc(-c3ccc(NC(=O)Nc4nnc(C)o4)c(F)c3)c2C1=O", "False"),
    ("CCN1CC(C)(C)Oc2nc(N3CCOC[C@@H]3C)nc(-c3ccc(NC(=O)Nc4ccc(OC)nc4)c(C)c3)c2C1=O", "False"),
]

Qu. IC50 strictly < 100 nM for this molecule? COc1ccc(NC(=O)Nc2ccc(-c3nc(N4C5CCC4COC5)nc4c3C(=O)N(C)CC(C)(C)O4)cc2)nc1
Ans. True

Qu. IC50 strictly < 100 nM for this molecule? CCN1CC(C)(C)Oc2nc(N3CC4CCC(C3)O4)nc(-c3ccc(NC(=O)OC[C@H](C)O)cc3)c2C1=O
Ans. False
